# experiment.description: gradient 5% acetonitrile 3 min, to 50% in 2 min, to 85% in 15 min, held 3 min, 100 µL/min
# measurement.setup: column: Zorbax Extend-C18 2.1 x 50 mm; eluents: water / acetonitrile, 0.1% formic acid
Below, each entry is listed alongside its reported RP-LC retention time.

{"columns": ["compound", "RP-LC retention time (s)"],
 "data": [
  ["Cc1nc(N)sc1-c1ccnc(Nc2ccc(N3CCOCC3)cc2)n1", 624],
  ["Cc1cc(C)n(-c2ccccc2Cl)c(=O)c1C(=O)O", 787],
  ["CCCCNC(=O)CC1CCN(C(=O)c2[nH]c(C)c(C(=O)OC)c2C)CC1", 689],
  ["COc1ccccc1CNC(=O)C1CCN(C(=O)c2nn(C)c3c2CN(C(=O)C(C)C)CC3)CC1", 681],
  ["Cc1ccc(CNC(=O)CN2C(=O)CCn3nc(-c4cn(C)c5ccccc45)cc32)o1", 806],
  ["Cc1csc(-c2cc(S(=O)(=O)N3CCCc4ccccc43)c(C)s2)n1", 1210],
  ["Cc1ccc(C)c2sc(NC(=O)CN(C)S(C)(=O)=O)nc12", 804],
  ["O=C(Nc1cnc(N2CCCCCC2)nc1)C1CCC1", 778],
  ["Cc1nc(OCC(=O)NC2CCCCC2)c2c(-c3cccc(F)c3)noc2n1", 990],
  ["CCCNC(=O)C1CCN(c2ccc(SCC(=O)Nc3ccc4c(c3)CCC4)nn2)CC1", 707],
  ["Cc1[nH]c(=O)[nH]c(=O)c1CCc1nnc(SCC(=O)c2ccc3c(c2)NC(=O)CO3)o1", 589],
  ["O=S(=O)(c1ccccc1)N1CCc2nc(-c3ccc(F)cc3)ncc2C1", 1040],
  ["O=C(NC1CCCCCC1)C1CCN(c2cncnc2N2CCCCC2)CC1", 712],
  ["CCn1cc(S(=O)(=O)Nc2ccc(C)c(F)c2)c2cccnc21", 799],
  ["COc1ccc(CC(=O)Nc2nnc(SCc3ccccc3F)s2)cc1OC", 824],
  ["O=C(Cn1cnc2nc(N3CCCC(C(=O)NC4CC4)C3)sc2c1=O)Nc1ccc2c(c1)CCC2 (centres undefined)", 744],
  ["Cc1ccc2[nH]c(=O)c(CCC(=O)O)cc2c1", 651],
  ["COCCCNC(=O)c1cc(-c2ccc(OC)cc2)nc2n[nH]c(-c3ccccc3)c12", 789],
  ["COc1cccc(NC(=O)Cn2ccc3ccc(-c4nnc(C)o4)cc32)c1", 788],
  ["CC(C)(C)c1csc(-c2csc(S(=O)(=O)NCc3ccccc3F)c2)n1", 1220],
  ["COc1ccc(N2CC(c3noc(-c4ccc(N(C)C)cc4)n3)CC2=O)cc1 (centres undefined)", 889],
  ["O=C(NC1CCCCCC1)C1CCN(Cc2cc3ccccc3n2Cc2ccccc2)CC1", 845],
  ["CCc1cc(N2CCN(C(=O)c3ccc(N(C)C)cc3)CC2)nc2nncn12", 586],
  ["O=C(c1c(F)cccc1Cl)N1CCCC(c2nnc(-c3ccccc3F)s2)C1 (centres undefined)", 920],
  ["O=C(NCCc1ccccc1)N1CCN(C(=O)N2C[C@H]3C[C@H](C2)[C@H]2CCCC(=O)N2C3)CC1", 629],
  ["COc1ccc(-c2nc(C3CC(=O)N(c4ccc(C)cc4)C3)no2)c(OC)c1 (centres undefined)", 939],
  ["O=C(NCc1cccs1)c1cccn1Cc1noc(-c2ccccc2)n1", 972],
  ["CCCCNC(=O)c1nnn2c1COC(c1ccc(F)cc1)C2 (centres undefined)", 929],
  ["Cc1sc(NC(=O)c2ccccc2Cl)nc1-c1ccc2c(c1)NC(=O)C(C)O2 (centres undefined)", 914],
  ["O=C(Cn1cnc(-c2nc(-c3ccccc3)cs2)c1)N1CCN(c2ccccc2)CC1", 853],
  ["CCCn1ncc(N2CCC(C(=O)NCC3CCCO3)CC2)cc1=O (centres undefined)", 608],
  ["CC(C)c1ccc(-c2ccnc3c(C(=O)N4CCN(c5ncccn5)CC4)cnn23)cc1", 963],
  ["CC(C)(C)c1ccc(-c2noc(Cn3c(=O)n(-c4cccc(F)c4)c(=O)c4sccc43)n2)cc1", 1220],
  ["Cc1ccc(-n2ncc3c(NCCN(C)C)ncnc32)cc1Cl", 669],
  ["COCCNC(=O)C1COC2(CCCCC2)N1C(=O)c1cccc(C(F)(F)F)c1 (centres undefined)", 814],
  ["CCOC(=O)C1CCN(c2cc3c(cc2NC(=O)CC(C)C)n(C)c(=O)c(=O)n3C)CC1", 822],
  ["COc1cc(C2CC(=O)c3c([nH]c(C(=O)OCC4CCCCC4)c3C)C2)cc(OC)c1OC (centres undefined)", 1180],
  ["CSc1ccccc1NC(=O)c1cc2ncc(Br)cn2n1", 1020],
  ["CCOc1ccc(NC(=O)c2noc3c2CCCC3)cc1", 958]
]}
